tested on: MS2 coat protein; experiment: apparent KD of MS2 coat protein; designed switch direction (-1 OFF switch, 1 ON switch): 1; higher = weaker reporter binding; conditions: input ligand: FMN 200 uM
propertyName: apparent KD of MS2 coat protein (nM)
Numbers only, in nM.

Here's what some known entries look like.
querySequence	testTarget	apparent KD of MS2 coat protein (nM)
UCGUCGACACAAAUUCGACAACAUGAGGAUCACCCAUGUCCACAGGAUAUCGGCAGCUUAUGCUCCGAGAAGGGUGGUUAGAUU [Beage Mod] (Eterna round: R96, puzzle: Same State NG 3)	MS2 coat protein	435
GCAGGACGAUAAUAUAUCUUCACAUGAGGAUCACCCAUGUCUCAGGAUAUGGAUCCUAAUUGGAUCCAGAAGGGAGCGUCCUGC [Fiskers NG3ss - 33] (Eterna round: R96, puzzle: Same State NG 3)	MS2 coat protein	33.2

Consider the additional sequence presented here.
Quick one: give measured apparent KD of MS2 coat protein for GUGGUUCUCGUAGGAUAUGUAGGAUAUGCCUACAUGAGGAUCACCCAUGUUCGCAUGGCAGAAGGACAGAAGGACGAUCACUAA [pwkr ssNG2 2FMN + 1F5.15] (Eterna round: R96, puzzle: Same State NG 2)
159

----------
test system: K4 kissing-loop RNA reporter; test: apparent KD of K4 kissing-loop reporter; higher = weaker reporter binding; conditions: Eterna round: R107; input ligand: arginine 13.2 mM;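 also: bound reporter read as fluorescence of individual clusters on recovered sequencing chips by microscopy, with normalized cluster intensities fitted with a binding model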
We use 200 nM as the dividing line for apparent KD of K4 kissing-loop reporter: on or above the line is Y, below is N.

Example entries and their recorded answers appear below.
querySequence	testTarget	label
AAAUAAAACUAUGAUACCAGUCAUCACAGAGUGAUGUUUUGUGGCAUUUUAAACUUGGCAGACCCUUGGCAGCAUGAUAUAGGAG [theeternabot_sameState_KL_Theo_B_8]	K4 kissing-loop RNA reporter	Y
GCGGGCCCUGGAGGAUAUGAGUCGAGUGAUGUUCGGCGGUCCAUGCCGAUGCGGCGUUAUGCCCUUUUAGAAGGCCAGGGCCCGC [#2 Exclusion - FMN B Attempt #7 (HarryS)]	K4 kissing-loop RNA reporter	Y
AUUAAUUUCAGAGGAUAUCGUAUUUAUAUUUUAUCUUUCCAUAUUUGCAGUGAUGUUGCAUUAAUUCGAGAAGGCUGAUUUAUAA [JR_ExcFMNB_Sub008]	K4 kissing-loop RNA reporter	N
AAUUAAUGUAUAGAUUAUAUACAUUAAUCAGAGGAUAUGCUUUGUUGCAGAAGGCUGAAUGCAGUGAUGUUGCAAUUUUAAUUUA [JR_SSFMNA_Sub005]	K4 kissing-loop RNA reporter	N
AAGUCUCGUUAAUUCGAGGUUACGAUCGAUACCAGUAGCGAGAGGUACCCUUGGCAGCGAAGUGAGUGAUGUUCAUGAAAGAAGA [KL-XTheoA12]	K4 kissing-loop RNA reporter	N
GGUUCUGGAAUCGAGUGAUGUUCGGUGUUGCAGGAUAUAGAGAGAUCUAGAAGGGCAGUUUGUAUUUUAUUGAGUGAUUUUCUUU [Last Minute #3]	K4 kissing-loop RNA reporter	N

Given AGGAGCGUGGGAUGGAAAUCGCACGCUCCUCGAGGACCGGUACGGCCGCCACUCGCUCGCGCCGAGUGAUGUUCGGCCGGCGAAC [#2 Same State - Tryptophan A Attempt #11 (HarryS)] , state whether its apparent KD of K4 kissing-loop reporter is at least 200 nM.
N

Given GCAGGACGAGGAGGAGGAUGAAUUACUGAAGGAGCGCAUAUUUUUGCAGGUAGGUCGCGGUAAACAAGUAUAGUGAUGUUAUAUA [SSArgA.M] , state whether its apparent KD of K4 kissing-loop reporter is at least 200 nM.
Y

Given UGAUACCAGACUGAUACCAGCUAGUGAUGUUAGCUAAAAUCAGGGUCAAAGACCCUGUCUGGCCCUUGGCAGCAGUCUGGUAUCU [TheoBX 10 #SwitchBubble #StaticStem] , state whether its apparent KD of K4 kissing-loop reporter is at least 200 nM.
N

Given GGCAGUGAUGUUGCCUAAGCAACGCAUGCAGAGGAUAUUCGUUCGGGAAGAAGGCUGCAGCGUUCUCUCGCGAGUGAUGUUCGCG [Same State FMN A GF 23] , state whether its apparent KD of K4 kissing-loop reporter is at least 200 nM.
N

Given AGCUCAGAGUGACUCGAUAAGAGUCACAAACGAGGACCGGUACGGCCGCCACUCGAAAUAACGAGAGUGAUGUUCUCGCUGAGCA [#SwitchBubble 1 #StaticStem #K4Late] , state whether its apparent KD of K4 kissing-loop reporter is at least 200 nM.
Y
